Hey, just so you know, these numbers are from paper PMC6154694.

- experiment.description: Liver microsomal stability, rat
- Assay type: in vitro ADME, IGS Sprague-Dawley rat
- test.parameters: rat liver microsomes; substrate 10 µM; protein 0.5 mg/mL; 45 mg protein/g liver
property.label: Intrinsic Clearance (mL/min/g Liver)
Response body: numeric value in mL/min/g Liver, unit text excluded.

Can you look up the measured Intrinsic Clearance of CCCCCCCC(O)CC(=O)CCc1ccc(O)c(OC)c1 (stereo not shown) for me?
7.0

Input CCCCCCCCCC(O)CC(=O)CCc1ccc(O)c(OC)c1 (stereo not shown) [10G, 10-gingerol]
5.4

Input "CCCCC/C=C/C(=O)CCc1ccc(O)c(OC)c1"
13.0

Input "CCCCC[C@H](O)CC(=O)CCc1ccc(O)c(OC)c1"
11.2

###

- experiment.description: Mouse pharmacokinetic study of oral GE with and without ketoconazole, plasma with and without β-glucuronidase treatment
- Type: in vivo, male mice (C57BL6J)
- test.parameters: male, C57BL6J; mouse plasma; 250 mg/kg GE with 50 mg/kg ketoconazole oral; 12 h; −βgd
property.label: concentration at 12 h (ng/mL)
Response body: numeric value in ng/mL, unit text excluded.

Can you look up the measured concentration at 12 h of CCCCCCCC(O)CC(=O)CCc1ccc(O)c(OC)c1 (stereo not shown) for me?
0.67

Input CCCCCCCCCC(O)CC(=O)CCc1ccc(O)c(OC)c1 (stereo not shown) [10G, 10-gingerol]
2.61

Input "CCCCC/C=C/C(=O)CCc1ccc(O)c(OC)c1"
0

Input "CCCCC[C@H](O)CC(=O)CCc1ccc(O)c(OC)c1"
0.74

###

- experiment.description: Mouse pharmacokinetic study of oral GE with and without ketoconazole, plasma with and without β-glucuronidase treatment
- Format: in vivo, male mice (C57BL6J)
- test.parameters: GE administered group, mouse plasma; 6 h
Please respond with reported Concentration Ratio (Total/Free) of GE Phenolics for every item in the list.
Form: value (number only, do not type unit).

Can you look up the measured Concentration Ratio (Total/Free) of GE Phenolics of CCCCCCCCCC(O)CC(=O)CCc1ccc(O)c(OC)c1 (stereo not shown) [10G, 10-gingerol] for me?
15

Input "CCCCC/C=C/C(=O)CCc1ccc(O)c(OC)c1"
0

Input "CCCCC[C@H](O)CC(=O)CCc1ccc(O)c(OC)c1"
391

Input CCCCCCCC(O)CC(=O)CCc1ccc(O)c(OC)c1 (stereo not shown)
23

###

- experiment.description: Mouse pharmacokinetic study of oral GE with and without ketoconazole, plasma with and without β-glucuronidase treatment
- Assay type: in vivo, male mice (C57BL6J)
- test.parameters: male, C57BL6J; mouse plasma; 250 mg/kg GE oral; 0 h; −βgd
Please respond with reported concentration at 0 h for every item in the list.
Response body: numeric value in ng/mL, unit text excluded.

Can you look up the measured concentration at 0 h of CCCCCCCCCC(O)CC(=O)CCc1ccc(O)c(OC)c1 (stereo not shown) [10G, 10-gingerol] for me?
0

Input CCCCCCCC(O)CC(=O)CCc1ccc(O)c(OC)c1 (stereo not shown)
0

Input "CCCCC/C=C/C(=O)CCc1ccc(O)c(OC)c1"
0

Input "CCCCC[C@H](O)CC(=O)CCc1ccc(O)c(OC)c1"
0

###

Please respond with reported concentration at 0.25 h for every item in the list.
- experiment.description: Mouse pharmacokinetic study of oral GE with and without ketoconazole, plasma with and without β-glucuronidase treatment
- Format: in vivo, male mice (C57BL6J)
- test.parameters: male, C57BL6J; mouse plasma; 250 mg/kg GE oral; 0.25 h; −βgd
- Protocol: A solution formulation of GE was prepared by using 5% ethanol, 5% Tween 80, 40% polyethylene glycol, and 50% corn oil. The dose volume was 10 mL/kg and the dose administered was 250 mg/kg GE. […] To confirm the presence of GE glucuronide conjugates, plasma (100 μL) was treated with βgd (20 μL, 500 units) and incubated at 37 °C for 1 h. Each sample was analyzed twice with and without β-gd treatment. […]
Please answer using a numeric value trailed by its unit.

Can you look up the measured concentration at 0.25 h of CCCCC[C@H](O)CC(=O)CCc1ccc(O)c(OC)c1 [6G, 6-gingerol] for me?
2.25 ng/mL

Input CCCCC/C=C/C(=O)CCc1ccc(O)c(OC)c1 [6S, 6-shogaol]
0.39 ng/mL

Input CCCCCCCCCC(O)CC(=O)CCc1ccc(O)c(OC)c1 (stereo not shown) [10G, 10-gingerol]
25.9 ng/mL

Input CCCCCCCC(O)CC(=O)CCc1ccc(O)c(OC)c1 (stereo not shown) [8G, 8-gingerol]
0.11 ng/mL
